# ASSAYED TARGET: human PCSK9 D347Y recombinant protein (human, UniProt Q8NBP7 31-692, biotin label (sites not given) in Examples 3 and 9)
# Sequence (Q8NBP7 31-692 D374Y): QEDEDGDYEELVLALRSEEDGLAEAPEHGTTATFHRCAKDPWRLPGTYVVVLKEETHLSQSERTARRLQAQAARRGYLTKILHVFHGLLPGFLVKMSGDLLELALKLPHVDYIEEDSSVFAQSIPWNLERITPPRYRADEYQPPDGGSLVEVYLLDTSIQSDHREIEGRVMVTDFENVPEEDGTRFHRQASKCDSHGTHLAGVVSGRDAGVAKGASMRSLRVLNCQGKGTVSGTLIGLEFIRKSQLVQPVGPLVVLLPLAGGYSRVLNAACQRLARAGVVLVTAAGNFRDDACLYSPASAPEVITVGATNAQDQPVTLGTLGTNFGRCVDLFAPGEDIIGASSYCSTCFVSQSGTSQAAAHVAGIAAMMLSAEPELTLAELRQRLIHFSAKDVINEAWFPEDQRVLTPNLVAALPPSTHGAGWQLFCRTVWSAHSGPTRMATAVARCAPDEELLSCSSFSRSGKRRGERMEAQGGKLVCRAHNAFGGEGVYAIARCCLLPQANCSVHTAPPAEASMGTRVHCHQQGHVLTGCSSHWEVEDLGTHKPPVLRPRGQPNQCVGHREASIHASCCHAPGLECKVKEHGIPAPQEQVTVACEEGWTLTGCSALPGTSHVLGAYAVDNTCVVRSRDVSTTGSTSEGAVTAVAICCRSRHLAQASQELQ
# MEASUREMENT NOTES: ELISA, antibody coated at 1 ug/ml, biotin-labeled PCSK9 (D347Y by the legend) titrated, HRP-streptavidin; the concentration is that of PCSK9; unit taken from the axis log(pg/ml)
PROPERTY LABEL: EC50 (µg/mL)
The figure you give is taken to be in µg/mL; do not add the unit.

Input: # return recorded EC50 for input 1A5 murine-derived anti-PCSK9 monoclonal antibody (antibody, V domains shown, Mouse hybridoma antibody) VH: QVQLKQSGPSLVQPSQSLSITCTVSGFSLTSYGVHWVRQSPGKGLEWLGVIWRGGSTDYNAAFMSRLSITKDNSKSQVFFKMNSLQADDTAIYYCANHRDWGQGTLVTVSA VL: DIQMTQSPSSLSASLGDKVTITCKASQDINKYIDWYQHKPGKGPRLLIHYTSTLQPGIPSRFSGSGSGRDYSFSISNLEPEDIATYYCVQYDDLWTFGGGTKLEIK
Output: 0.752
